- System under test: Human immunodeficiency virus type 1 integrase (Human immunodeficiency virus 1, UniProt Q7ZJM1)
- Sequence (Q7ZJM1 whole entry): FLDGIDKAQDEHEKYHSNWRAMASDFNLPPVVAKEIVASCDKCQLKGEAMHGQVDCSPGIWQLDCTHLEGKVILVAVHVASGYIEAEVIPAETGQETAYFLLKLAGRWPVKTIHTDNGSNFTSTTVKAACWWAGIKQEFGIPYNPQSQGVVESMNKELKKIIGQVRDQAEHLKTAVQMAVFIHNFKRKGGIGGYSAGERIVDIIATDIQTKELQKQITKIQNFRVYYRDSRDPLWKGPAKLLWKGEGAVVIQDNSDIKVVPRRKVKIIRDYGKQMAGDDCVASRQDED
Assay metric: pIC50
Kindly note that pIC50 refers to -log10 of the concentration in mol/L and answer with the value alone.

Qu. Supply reported pIC50 belonging to this compound: O=c1cc(Sc2ccccc2Br)[nH]c(=O)n1O
Ans. 5.96

Qu. State its pIC50 for this compound: COc1ccccc1Sc1cc(=O)n(O)c(=O)[nH]1
Ans. 5.08

Qu. Assign pIC50 to the following record: O=c1cc(Sc2cccc(Cl)c2)[nH]c(=O)n1O
Ans. 6.23

Qu. Please give the documented pIC50 of O=c1cc(Sc2ccccc2C(F)(F)F)[nH]c(=O)n1O
Ans. 6.06

Qu. Note down pIC50 recorded for O=c1cc(Sc2cccc(F)c2)[nH]c(=O)n1O
Ans. 6.31

Qu. Respond only with pIC50 recorded for COc1cccc(Sc2cc(=O)n(O)c(=O)[nH]2)c1
Ans. 5.57

Qu. Please list pIC50 recorded for the compound Cc1ccc(Sc2cc(=O)n(O)c(=O)[nH]2)cc1
Ans. 5.55

Qu. Indicate its recorded pIC50; the compound in question is O=c1cc(Sc2ccccc2)[nH]c(=O)n1O
Ans. 5.96

Qu. For O=c1cc(Sc2ccc(Cl)cc2)[nH]c(=O)n1O , write its pIC50.
Ans. 6.19

Qu. Give reported pIC50 value for O=c1cc(Sc2ccc(O)cc2)[nH]c(=O)n1O
Ans. 5.80

Qu. Using the record for COc1ccc(Sc2cc(=O)n(O)c(=O)[nH]2)cc1 , state its measured pIC50.
Ans. 5.44

Qu. Could you please provide reported pIC50 for O=c1cc(Sc2cccc(C(F)(F)F)c2)[nH]c(=O)n1O ? Thanks!
Ans. 6.06

Qu. Please indicate pIC50 recorded for O=c1cc(Sc2ccc([N+](=O)[O-])cc2)[nH]c(=O)n1O
Ans. 5.47

Qu. Fill in reported pIC50 for this entry: CCc1ccccc1Sc1cc(=O)n(O)c(=O)[nH]1
Ans. 6.12
